This collection of values is drawn from the RNAGym collection of RNA variant scans (doi:10.1073/pnas.2313332121).

B1: TPR t1 (parent)
chain: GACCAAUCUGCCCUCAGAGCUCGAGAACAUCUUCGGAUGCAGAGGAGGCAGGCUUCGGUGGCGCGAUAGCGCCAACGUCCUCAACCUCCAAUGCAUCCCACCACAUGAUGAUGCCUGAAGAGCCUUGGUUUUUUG

Variants of: B1
Test: polymerase ribozyme fitness, log enrichment relative to wild type (log ratio); higher = more active; in vitro selection for triplet polymerase activity
Each record gets a class by polymerase ribozyme fitness (log ratio): LOW: < -4; MID: ≥ -4 and < -2; HIGH: ≥ -2

> print(dat)
                  mutationspec  category
 1                  C40G C102A       MID
 2       G48C C53A C124U G128C       MID
 3  A2U G77C U116A C124A U130C      HIGH
 4                   C12G C40U      HIGH
 5                  U81G U112G       LOW
 6              G69C C86G A91U       LOW
 7         C11G C13G A18U C49G       MID
 8             C53U C64U U106A      HIGH
 9        G36C C64U G93A A100C       MID
10             G52C C72G C104U      HIGH
11                  C88A G110A      HIGH
12                   C13A G61A      HIGH
13   C31G G57A G58C G63A U112C       LOW
